protocol: NCI Yeast Anticancer Drug Screen. Data for the sgs1 mgt1 strain (AID 161);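 note: 0% = growth of cultures given vehicle only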
details: S. cerevisiae sgs1 mgt1 strain, active compounds read high; at 50.0 µM unless noted
Compounds without any hit were thinned out: in the full panel of roughly 79,000, 15% have a hit.
Item-by-item account of growth inhibition
measurement-kind: growth inhibition (%)

molecule	measurement-kind	result-unit	value-reported
COc1ccc(-c2nnc(N)s2)cc1OC	growth inhibition	%	2.8
COc1cc2c(cc1OC)NC(=O)NC(Cc1ccc3c(c1)OCO3)CC2 (stereo not given)	growth inhibition	%	13.8
COc1ccc(C(=O)CCC2(C)OCCO2)cc1OC	growth inhibition	%	18.9
NC(=O)c1ccc[n+]([O-])c1	growth inhibition	%	6.35
COc1ccc2c(c1OC(C)=O)-c1cc(OC(C)=O)cc3c1C(C2)N(C(=O)CBr)CC3 (stereo not given)	growth inhibition	%	70.2
CC1(C)C2(Cl)C(Cl)=C(Cl)C13C(Cl)(c1ccc([N+](=O)[O-])cc1C1(Cl)C(Cl)(Cl)C4(Cl)C(Cl)=C(Cl)C13C4(C)C)C2(Cl)Cl (stereo not given)	growth inhibition	%	-27.9
CO/N=C1/OC(=O)OCC1(c1ccccc1)c1ccccc1	growth inhibition	%	2.7
O=C(NC1CCCCC1)/C(=C\c1ccccc1)NC(=O)c1ccccc1	growth inhibition	%	-28.6
[O-][N+](=Nc1ccc2c(c1)Cc1ccccc1-2)c1ccc2c(c1)Cc1ccccc1-2	growth inhibition	%	25.1
CCSC(SCC)C(NC(C)=O)C(O)C(O)C(O)CO (stereo not given)	growth inhibition	%	3.7
